assay: soluble on expression in E. coli; label from the status in PepcDB or PDB records
Reported endpoint: soluble on expression in E. coli

[
  {
    "Query sequence": "MMGEPARLRRLTAEEYLREEATSPVKRELVEGVPYAMAGAGRAHNLIVTNLVLLLGPLARRKGCRLYVADMKLKVGEATFYYPDLMAVCAPPPESPLYEEAPCLVVEVLSPATEGVDRREKLWRYLSLPSLEGYLLVSARERRVELYRKEGDILHQVAEEGEVPLPCLEGSLPVAEVYAGVELEGQEA",
    "Experimental value": "soluble"
  },
  {
    "Query sequence": "MTQVSIIVPVLNEESTIHSAVSRLCRDFPDCELIVVDGGSTDATAELAALHATVIGSERGRAKQMNEGARHASGGILWFIHADTAIEPEALGQIRSVLADPAVVAGGLTLRFDRRTPALNYLAWTSNARARRLHHIFGDQAMFIRRTAFDELGGFPDLAIMEDLEMSRRLHRRGPLRLLPATSTASSRRLTAHGTWRMIAFMQYLKLLYFAGADPEAIRARYTAGPRLFPKRNPATLEHHHHHH",
    "Experimental value": "not soluble"
  },
  {
    "Query sequence": "MSLSMSKRLLLFDFDETYFKHNTNEEDLSHLREMEKLLEKLTNNNEVMTAVLTGSTFQSVMDKMDQVNMTFKPLHIFSDLSSKMFTWNNGEYIESETYKKKVFSEPFLFEDIEDILRHISAQYNVEFIPQRAFEGNETHYNFYFHSTGNHSNDRRILEALVRYANDQNYTARFSRSNPLAGDPENAYDIDFTPSNAGKLYATQFLMKKYNIPVKSILGFGDSGNDEAYLSYLEHAYLMSNSRDEALKQKFRLTKYPYYQGITLHVKEFVEGKYDYEGHHHHHH",
    "Experimental value": "soluble"
  },
  {
    "Query sequence": "MSLQGPNPIITVYSTQDYPILHAELASQVYLMDQVEQWENMISQRLSANPSVAAQQASQIFQSAEWKQSEEQLKRSYQGLISGWQNGIKKVPAVLFQYPGKEDSVIYGETNIAQALSLWQREITKEGTREGHHHHHH",
    "Experimental value": "soluble"
  }
]

Entry under test: MNKFFSADKKGGEKRRKKSKKKVRIVGMSEIGIWRQDDTMRIVHLSVWCILKRTTASLSGNEWKLSTRHANDGYIVRSPPTISGPERLQENGYVIWILL . Its soluble on expression in E. coli was not soluble

Measured soluble on expression in E. coli of VNEIVVNPNATLDWQLALRQAAGKTDLARDMLQMLLDFLPEVRNKVEEQLVGENPEGLVDLIHKLHGSCGYSGVPRMKNLCQLIEQQLRSGTKEEDLEPELLELLDEMDNVAREASKIL : not soluble

Reported soluble on expression in E. coli of MAHHHHHHMGTLEAQTQGPGSMNLDNVTGGDNVPKEINVIIEISQNSCPVKYEFDKEKNLFCVDRFLPTSMYYPCNYGFIPHTCAGDGDPVDVLVASRFPVMSGAVIRARPVGVLVMHDESGEDVKILAVPTHKVDQYYNNIKDYSDFPVSFLNSISHFFTFYKKLEEDKFVSVEGWKDVTVAEKLILSALIK : soluble

soluble on expression in E. coli measured on VRQLSQPLKRLVVAARQFGQGRSVRLPLGPETPSEMAEVYRAFNQMAEDIEQGGRERELMLAGVSHDLRTPLTRLRLSLELLPESEREMVEDMIRDIEDMDAILDQFLAFIRDGRDEPVEEGDLTDLVREVVAPFNQTREQVRMALQPVPAMPLRRVSMKRLLGNLIDNALNHGGGSVEVASYVAGESAAPYVVLSVLDRGQGIDPAEVDSIFNPFIRGDKARGGKGTGLGLAIVKRIAAQHGGSVELRNRDGGGLEARVCLPLGLLLPRGAA = not soluble

# sequence MGHHHHHHHHHHSSGHIEGRHIGSGVEAPEQLEEHGISVYATIPMSEWLDKRTRLRKKNLFSNQQRHRTKNIPFLAVDNPADSAVEAVRALRTSLHFAMMETENNILMITGATPDSGKTFVSSTLAAVIAQSDQKVLFIDADLRRGYSHNLFTVSNEHGLSEYLAGKDELNKVIQHFGKGGFDVITRGQVPPNPSELLMRDRMRQLLEWANDHYDLVIVDTPPMLAVSDAAVVGRSVGTSLLVARFGLNTAKEVSLSMQRLEQAGVNIKGAILNGVIKRASTAYSYGYNYYGYSYSEKE ; its soluble on expression in E. coli = soluble

Field soluble on expression in E. coli (entry SKDCIIQRYKDGDVNNIYTANRNEEITIEEYKVFVNEACHPYPVILPDRSVLSGDFTSAYADDDESC ) reads soluble

# soluble on expression in E. coli (sequence: MSEMPAREQMISAYSELVGLDPVSLGDGVAEVRLPMAAHLRNRGGVMHGGALFSLMDVTMGLACSSSHGFDRQSVTLECKINYIRAVADGEVRCVARVLHAGRRSLVVEAEVRQGDKLVAKGQGTFAQL ) is soluble

Lab note: MGSDKIHHHHHHLGRRGTADDEILLTYCPTLFIVGAEGRRFNNEAITELRTSMISPSGLVVVGHSNDMILVPTSMLLRLGISQTVVFRMVLEKILDFLNLEPVRQQEFADLVPIELNNVFDLDSALLKSDKALSGLAFASSTHSASSSAAPSPVGASGRRATVTGAGSEDIAKRRKESIILSQQIAAPSISGPPPPAPSPRTEDRFLAFQNLVASTITTGDDMPRRASMGASPRVIERGDFRDHRPPPPPPLPILQNPVATPMSQQPPLPSPAPPPPRGPVDPASISLI gave soluble on expression in E. coli of not soluble

The sequence MTSGKIHNPLNRQHSELRSKNVSLSNGDPFTIALFGVDSNAQRKSENDGERSDTIMLLSINPKKQTTEIVSVPRDTQAEIVGKGTTEKINHAYAYGGPTMAVKSLEKLMNVPIDHYATVDMDGLHDMIDALGGVNVTSNDTFTTKGTNFVKGQSTHVDGDTAMAFIRSRKEEGAGGDFGRQERQQLILQAMANKMTSTSALTHFPSLINQIQKNVKTDLTLNDMNDIRKNYKNANTTVNRHQLEGQGGIQDDGLWYFIPNDDSKQSATEILNNNLQNLEHHHHHH showed soluble on expression in E. coli equal to soluble

Recorded result, EVKLVESGGGLVKPGGSLKLSCAASGFTFSRYALSWVRQTADKRLEWVASIVSGGNTYYSGSVKGRFTISRDIARNILYLQMSSLRSEDTAMYYCARAYYGYVGLVHWGQGTLVTVSSAKTTPPSVYPLAPGSAAQTNSMVTLGCLVKGYFPEPVTVTWNSGSLSSGVHTFPAVLQSDLYTLSSSVTVPSSTWPSETVTCNVAHPASSTKVDKKIVPRDCG , soluble on expression in E. coli: soluble

----------
assay: soluble on expression in E. coli; label from the status in PepcDB or PDB records

[
  {
    "Query sequence": "ASFIEQQVGGSLNEASLAHHIEQVLATNGNLFIGNSLFVRLVDALCKLPEGYPVYTNRGASGIDGLIATMAGIAKASGQPTVGVVGDISALHDLNSISLLSKINHPSILFVINNSGGAIFDMLPVEARVKEQFYRLSHNYEFSQVAAMFGIEYIRPFTWADLKAKLKLAYGRKSATIVEIKVNDQDG",
    "soluble on expression in E. coli": "not soluble"
  },
  {
    "Query sequence": "MDNHDDKSKSDRFCDINNNMTTQFDRLSINSDASLVITSSRLAMQGADETSDWTPNKYSWFKLVTPNPVETRVVQQKAQMKGLKIHKMVHNFIPSRKQGYLGYYNFDVKSYEESEKARNLFPTDFVDAFCCQHLLGKNEQEFVFHAVNENDLKILCCIATYCKETKLDAPLDPMQHLNNLNLFYEAINNERAFIIMKDFMSDNGMKYLCRLKKDITDIRDRRNNN",
    "soluble on expression in E. coli": "not soluble"
  }
]

----------
assay: soluble on expression in E. coli; label from the status in PepcDB or PDB records
Reported endpoint: soluble on expression in E. coli

Take a look at these entries with their results.
[
  {
    "Query sequence": "MGSDKIHHHHHHENLYFQGMRISANFDGGNIETISLANPDDIQLAIRPDAGGEFYQWFNFRFEATIGKTYTLNILNAGGASYLKGWEDYQAVASYDRQTWFRLPTEYKDGKLSISVELDCEAIQIAYFTPYSYERHLDLISAVQLHPLVSTEHLGLTLDGRDMTLVKVGDDDPSKKSIWITARQHPGETMAEWLVEGLLNQLLDNDCPTSKALLDKANFYIVPNMNPDGSVRGHLRTNAVGANLNREWQTPSLERSPEVYYVVNKMHETGVDLFYDVHGDEGLPYVFLAGCEGIPNYSDKLASLQQDFVAALSLASADFQTEFGYDKDEPGKANLTVACNWVANTFKCLSNTLEMPFKDNANLADPFQGWSPERSVYFGEASLIAMRAVIDKIGQ",
    "Experimental value": "soluble"
  },
  {
    "Query sequence": "MRYIMASPINSGIMMANLCPSTFLDKNRNVAAELDIKNNEKKYSPGSNFAKWMLQEIKRLILNIMSGSRSINTDILDYFHPMPGTENNGNRTWVAATGEDEYIEIKQTGDKSFNITLVGRDKPSRKEIPYSGVAVATIIKSLSEKTSALETHSADTVLRKKLVNSIVMKNTDFNYEIPAGILSNIYDLLKLRIKKDEGYVPVQESFKRTDVFFDSMIMDAH",
    "Experimental value": "not soluble"
  },
  {
    "Query sequence": "MSLTEKVSVFALGGAGEIGKNMYVVELDEDIFVIDAGLMFPGDEMLGIDKVIPDISYLKENKERIQGIFITHGHEDHIGALSYVLRDLKVPVYGTRLTLGLIEIKLKEAGLLKKADLRPIDAKTKLTVAGHFITFFRVNHSIPDAVGVCIQTSQGAIVHTGDFKFDYTPVDGKQADFGKIAAIGQRGVLCLLSDSTNAERPGMSGSESTVGSELNDVIYEAPGRVIVASFASNVHRLQQVFAAAEANNEGHHHHHH",
    "Experimental value": "soluble"
  },
  {
    "Query sequence": "MSTQYLNSNLKVFSLNSNKELAEQIAKHIGVGLGKCSVDRFSDGEVQINIEESIRGCDVFIIQSTSFPVNEHIMELLIMIDALKRASAKTINIVIPYYGYARQDRKARSREPITSKLVANLLETAGATRVITLDLHAPQIQGFFDIPIDHLMGVPILSDYFETKGLKDIVIVSPDHGGVTRARKMADRLKAPIAIIDKRRPRPNVSEVMNIIGNIEGKTAILIDDIIDTAGTITLAANALVENGASEVYACCTHPVLSGPAIERIQNSNIKELVVTNSIVLPEEKKIDKVHELSVAPLIGEAIIRVYEEESVSVLFN",
    "Experimental value": "not soluble"
  },
  {
    "Query sequence": "MERYVWARFFWQQARDKRGVPRRHVCDTARNNNRRPETGTAFTALCSTTVTPHPDDDDTVKGTCFAPACQVCTILLARAMNWNDGELGQLVQTFHWTHADIALLATALDITRSEARRLLTAWTDAAK",
    "Experimental value": "not soluble"
  }
]

Notebook: PHDDSYWDRVLTHGKNCIKYTPNNAASLHNAIRLLNESPWMKVTMGLEALNVAQLYSAERCYMPIAQYLCSEHAPTSHHGAKARNNVKGYDHV , soluble on expression in E. coli read as not soluble

Given item MKNTKLLLAIATSAALLTGCQNTHGIDTNMAISSGLNAYKAATLSDADAKAIANQGCAEMDSGNQVASKSSKYGKRLAKIAKALGNNINGTPVNYKVYMTSDVNAWAMANGCVRVYSGLMDMMNDNEIEGVLGHELGHVALGHSLAEMKASYAIVAARDAISATSGVASQLSRSQLGDIAEGAINAKYSRDKESEADDFSFDLLKKRGISTQGLVGSFEKLASLDGGRTQSMFDSHPPSTERAQHIRDRIASGKLEHHHHHH , the value recorded as its soluble on expression in E. coli is soluble
